The measured values listed here are drawn from ChEMBL document CHEMBL1152844.

- method description: Inhibition of HIV2 ROD reverse transcriptase after 30 mins
- Parameters: species or system Human immunodeficiency virus 2
pIC50: −log10 of the molar value.
measured attribute: pIC50

# molecule, measured attribute, result
records = [
    ("O=C1CSC(c2c(Cl)cccc2Cl)N1CC12CC3CC(CC(C3)C1)C2 (stereo not given)", "pIC50", "≤ 3.22"),
    ("O=C1CSC(c2c(F)cccc2F)N1CC12CC3CC(CC(C3)C1)C2 (stereo not given)", "pIC50", "< 3.22"),
    ("O=C1CSC(c2c(F)cccc2F)N1CCC12CC3CC(CC(C3)C1)C2 (stereo not given)", "pIC50", "≤ 3.22"),
    ("Cc1cc(C)nc(N2C(=O)CS[C@@H]2C23CC4CC(CC(C4)C2)C3)c1", "pIC50", "< 3.22"),
    ("O=C1CSC(c2c(Cl)cccc2Cl)N1CCC12CC3CC(CC(C3)C1)C2 (stereo not given)", "pIC50", "< 3.22"),
]

---

- method description: Cytotoxicity against HIV-infected human CEM cells
- Format: cell-based, CCRF-CEM
- study conditions: HIV-infected CEM (CCRF-CEM) cells

# molecule, CC50, µM
records = [
    ("CCN(CC)CCN1C(=O)CSC1CC12CC3CC(CC(C3)C1)C2 (stereo unspecified)", 43),
]

---

Let's go through some recorded log10 of IC50 values for Human immunodeficiency virus type 1 reverse transcriptase (Human immunodeficiency virus 1) together.
measured attribute: log10 of IC50 (log10 of the value in µM)

# molecule, assayed system, log10 of IC50
measured = [
    ("O=C1CSC(c2c(F)cccc2F)N1CC12CC3CC(CC(C3)C1)C2 (stereo not given)", "Human immunodeficiency virus type 1 reverse transcriptase (Human immunodeficiency virus 1)", 2.69),
    ("O=C1CSC(c2c(Cl)cccc2Cl)N1CC12CC3CC(CC(C3)C1)C2 (stereo not given)", "Human immunodeficiency virus type 1 reverse transcriptase (Human immunodeficiency virus 1)", 1.63),
    ("O=C1CSC(c2c(F)cccc2F)N1CCC12CC3CC(CC(C3)C1)C2 (stereo not given)", "Human immunodeficiency virus type 1 reverse transcriptase (Human immunodeficiency virus 1)", 1.50),
    ("O=C1CSC(c2c(Cl)cccc2Cl)N1CCC12CC3CC(CC(C3)C1)C2 (stereo not given)", "Human immunodeficiency virus type 1 reverse transcriptase (Human immunodeficiency virus 1)", 2.35),
    ("Cc1cc(C)nc(N2C(=O)CS[C@@H]2C23CC4CC(CC(C4)C2)C3)c1", "Human immunodeficiency virus type 1 reverse transcriptase (Human immunodeficiency virus 1)", 1.13),
]

---

- method description: Selectivity index, ratio of CC50 for human CEM cells to EC50 for HIV1 3B
- Format: toxicity, cell-based, CCRF-CEM
- study conditions: read-out: Ratio CC50/EC50
measured attribute: selectivity ratio

# molecule, value operator, quantitative result
records = [
    ("Cc1ccnc(N2C(=O)CSC2C23CC4CC(CC(C4)C2)C3)n1 (centres undefined)", "=", 30),
    ("Cc1cc(N2C(=O)CSC2C23CC4CC(CC(C4)C2)C3)nc(C)n1 (centres undefined)", "<", 1.6),
    ("COc1cc(C2SCC(=O)N2CC23CC4CC(CC(C4)C2)C3)cc(OC)c1OC (centres undefined)", "<", 1.6),
    ("Cc1cc(C)nc(N2C(=O)CSC2C23CC4CC(CC(C4)C2)C3)c1 (racemic)", "=", 120),
    ("Cc1cc(C)nc(N2C(=O)CSC2CC23CC4CC(CC(C4)C2)C3)n1 (centres undefined)", "=", 3),
    ("COc1cc(C2SCC(=O)N2CCC23CC4CC(CC(C4)C2)C3)cc(OC)c1OC (centres undefined)", "=", 1.4),
    ("O=C1CSC(c2c(F)cccc2F)N1CCC12CC3CC(CC(C3)C1)C2 (centres undefined)", "=", 4),
    ("O=C1CSC(c2c(F)cccc2Cl)N1CC12CC3CC(CC(C3)C1)C2 (centres undefined)", "=", 10),
    ("O=C1CSC(c2c(F)cccc2Cl)N1CCC12CC3CC(CC(C3)C1)C2 (centres undefined)", "=", 4.7),
    ("Cc1ccnc(N2C(=O)CSC2CC23CC4CC(CC(C4)C2)C3)c1 (centres undefined)", "=", 1.6),
    ("O=c1[nH]cnc2c1ncn2[C@H]1CC[C@@H](CO)O1 [DIDANOSINE]", ">", 54),
    ("CCN(CC)CCN1C(=O)CSC1CC12CC3CC(CC(C3)C1)C2 (centres undefined)", "<", 1.4),
    ("Cc1cc(Cl)nc(N2C(=O)CSC2C23CC4CC(CC(C4)C2)C3)n1 (centres undefined)", "<", 5),
    ("Cc1cccc(N2C(=O)CSC2CC23CC4CC(CC(C4)C2)C3)n1 (centres undefined)", "=", 1.9),
    ("O=C1CSC(c2c(F)cccc2F)N1CC12CC3CC(CC(C3)C1)C2 (centres undefined)", ">", 25),
    ("Cc1cc(N2C(=O)CSC2CC23CC4CC(CC(C4)C2)C3)nc(C)n1 (centres undefined)", "<", 1.9),
    ("Cc1cc(C)nc(N2C(=O)CSC2CC23CC4CC(CC(C4)C2)C3)c1 (centres undefined)", "<", 2),
    ("O=C1CSC(c2c(Cl)cccc2Cl)N1CCC12CC3CC(CC(C3)C1)C2 (centres undefined)", "=", 5.5),
    ("O=C1CSC(CC23CC4CC(CC(C4)C2)C3)N1CCN1CCCC1 (centres undefined)", "=", 1.6),
    ("Cc1ccnc(N2C(=O)CSC2CC23CC4CC(CC(C4)C2)C3)n1 (centres undefined)", "<", 2.3),
    ("O=C1CSC(c2c(Cl)cccc2Cl)N1CC12CC3CC(CC(C3)C1)C2 (centres undefined)", "=", 21),
    ("CN(C)CCN1C(=O)CSC1CC12CC3CC(CC(C3)C1)C2 (centres undefined)", "<", 1.4),
    ("Cc1cc(C)nc(N2C(=O)CSC2C23CC4CC(CC(C4)C2)C3)n1 (centres undefined)", "=", 182),
    ("Cc1cc(Cl)nc(N2C(=O)CSC2CC23CC4CC(CC(C4)C2)C3)n1 (centres undefined)", "<", 1.9),
]

---

- Test system: Vesicular stomatitis virus
- method description: Antiviral activity against Vesicular stomatitis virus infected in HEL cells
- Format: functional, organism-based
Active and inactive are the calls of the source. No cut-off for these calls is given here.
measured attribute: Activity

# molecule, result
data = [
    ("Cc1cc(Cl)nc(N2C(=O)CSC2CC23CC4CC(CC(C4)C2)C3)n1 (stereo not given)", "inactive"),
    ("O=C1CSC(c2c(F)cccc2F)N1CC12CC3CC(CC(C3)C1)C2 (stereo not given)", "inactive"),
    ("O=C1CSC(c2c(Cl)cccc2Cl)N1CC12CC3CC(CC(C3)C1)C2 (stereo not given)", "inactive"),
    ("Cc1cc(N2C(=O)CSC2C23CC4CC(CC(C4)C2)C3)nc(C)n1 (stereo not given)", "inactive"),
    ("Cc1cc(C)nc(N2C(=O)CSC2CC23CC4CC(CC(C4)C2)C3)c1 (stereo not given)", "inactive"),
]

---

- System: Human respirovirus 3
- method description: Antiviral activity against Parainfluenza virus type 3 infected in african green monkey Vero cells
- Format: functional, organism-based
The source made the active and inactive calls. The rule behind the calls is not given here.

# compound, Activity
data = [
    ("Cc1cc(N2C(=O)CSC2C23CC4CC(CC(C4)C2)C3)nc(C)n1 (stereo unspecified)", "inactive"),
    ("O=C1CSC(CC23CC4CC(CC(C4)C2)C3)N1CCN1CCCC1 (stereo unspecified)", "inactive"),
    ("O=C1CSC(c2c(F)cccc2F)N1CC12CC3CC(CC(C3)C1)C2 (stereo unspecified)", "inactive"),
    ("O=C1CSC(c2c(F)cccc2Cl)N1CCC12CC3CC(CC(C3)C1)C2 (stereo unspecified)", "inactive"),
    ("COc1cc(C2SCC(=O)N2CCC23CC4CC(CC(C4)C2)C3)cc(OC)c1OC (stereo unspecified)", "inactive"),
    ("Cc1cccc(N2C(=O)CSC2CC23CC4CC(CC(C4)C2)C3)n1 (stereo unspecified)", "inactive"),
]

---

- System: Influenza A virus
- method description: Antiviral activity against Influenza virus type A H1N1 infected in MDCK cells
- Type: functional, organism-based
Active and inactive are the calls of the source. The rule behind the calls is not given here.
measured attribute: Activity

# molecule, result
measured = [
    ("O=C1CSC(c2c(F)cccc2Cl)N1CC12CC3CC(CC(C3)C1)C2 (stereo not drawn)", "inactive"),
    ("O=C1CSC(c2c(Cl)cccc2Cl)N1CC12CC3CC(CC(C3)C1)C2 (stereo not drawn)", "inactive"),
    ("Cc1cc(N2C(=O)CSC2C23CC4CC(CC(C4)C2)C3)nc(C)n1 (stereo not drawn)", "inactive"),
]
